Tested on: VAL (B-Cell Non-Hodgkin's Lymphoma);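 note: after 72 h of two-drug dosing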
protocol text: Bliss excess, mean over the matrix (fraction); higher = more synergy

| compound | Bliss excess |
| --- | --- |
| C=CCn1c(=O)c2cnc(Nc3ccc(N4CCN(C)CC4)cc3)nc2n1-c1cccc(C(C)(C)O)n1 [AZD1775] + CCc1c2c(nc3ccc(O)cc13)-c1cc3c(c(=O)n1C2)COC(=O)[C@]3(O)CC [SN-38] (first compound max 1 µM, partner max 0.3 µM) | -0.0619 |
| Cc1c2c(nn1C)CSCc1cc(n(C)n1)CSc1cc(c3ccccc3c1)OCCCc1c(C(=O)O)n(C)c3c-2c(Cl)ccc13 [AZD5991] + C1CN(CCC1(C(=O)N[C@@H](CCO)C2=CC=C(C=C2)Cl)N)C3=NC=NC4=C3C=CN4 [Capivasertib] (first compound max 1 µM, 7x7, partner max 3 µM) | -0.0223 |
